Source listed as the supplement of paper PMC7877785.

# Method summary: self-splicing fitness, log relative to wild type (ln ratio); higher = more splicing; Tetrahymena group I intron in knt gene, E. coli kanamycin selection, DiMSum; sequences stand for … in CUCUCU…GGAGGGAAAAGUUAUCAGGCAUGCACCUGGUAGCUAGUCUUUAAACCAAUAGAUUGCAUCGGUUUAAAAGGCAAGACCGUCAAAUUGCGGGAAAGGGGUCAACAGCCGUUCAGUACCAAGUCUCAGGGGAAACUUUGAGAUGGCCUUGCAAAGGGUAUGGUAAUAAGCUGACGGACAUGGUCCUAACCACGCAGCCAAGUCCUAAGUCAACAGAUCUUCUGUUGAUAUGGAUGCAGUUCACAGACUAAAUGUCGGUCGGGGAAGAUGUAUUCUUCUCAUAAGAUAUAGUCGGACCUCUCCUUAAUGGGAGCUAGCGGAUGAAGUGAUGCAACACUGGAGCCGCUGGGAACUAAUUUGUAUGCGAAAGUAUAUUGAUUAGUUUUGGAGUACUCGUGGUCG;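 note: selection with 25 µg/mL kanamycin versus none on LB agar overnight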
# Condition info: 30 °C
Recorded metric: self-splicing fitness (ln)
Answer with a bare number; do not write a unit.

So, GUUCAGCAAUAUUACGGUAC ? Its self-splicing fitness (ln) was -2.69

So, GAAGAGCAAUAUUACGGCCA ? Its self-splicing fitness (ln) was -1.59

So, UAACAGCAAUAUUACGAAAC ? Its self-splicing fitness (ln) was -4.62

So, GGAAAGCAAUAUUACGGCGA ? Its self-splicing fitness (ln) was -0.475

So, GUCAAGCAAUAUUACGCCUA ? Its self-splicing fitness (ln) was -0.294

So, UUCGAGCAAUAUUACGAACU ? Its self-splicing fitness (ln) was -3.28

So, GAGAAGCAAUAUUACGAGAU ? Its self-splicing fitness (ln) was -4.47

So, GAUCAGCAAUAUUACGCCAU ? Its self-splicing fitness (ln) was -3.36

So, UAGCAGCAAUAUUACGGUCA ? Its self-splicing fitness (ln) was -0.671

So, CAAUAGCAAUAUUACGCACU ? Its self-splicing fitness (ln) was -2.14

So, AGAGAGCAAUAUUACGAGCA ? Its self-splicing fitness (ln) was -2.68

So, CGAGAGCAAUAUUACGGAAC ? Its self-splicing fitness (ln) was -1.56

So, AGCUAGCAAUAUUACGAGAG ? Its self-splicing fitness (ln) was -2.83

So, CCCGAGCAAUAUUACGUCCG ? Its self-splicing fitness (ln) was -2.11

So, ACACAGCAAUAUUACGGCCG ? Its self-splicing fitness (ln) was -0.675

So, GCGGAGCAAUAUUACGAUCG ? Its self-splicing fitness (ln) was -0.357
